Target: PI3Kβ (Homo sapiens, UniProt P42338)
Sequence (P42338 whole entry, species assumed): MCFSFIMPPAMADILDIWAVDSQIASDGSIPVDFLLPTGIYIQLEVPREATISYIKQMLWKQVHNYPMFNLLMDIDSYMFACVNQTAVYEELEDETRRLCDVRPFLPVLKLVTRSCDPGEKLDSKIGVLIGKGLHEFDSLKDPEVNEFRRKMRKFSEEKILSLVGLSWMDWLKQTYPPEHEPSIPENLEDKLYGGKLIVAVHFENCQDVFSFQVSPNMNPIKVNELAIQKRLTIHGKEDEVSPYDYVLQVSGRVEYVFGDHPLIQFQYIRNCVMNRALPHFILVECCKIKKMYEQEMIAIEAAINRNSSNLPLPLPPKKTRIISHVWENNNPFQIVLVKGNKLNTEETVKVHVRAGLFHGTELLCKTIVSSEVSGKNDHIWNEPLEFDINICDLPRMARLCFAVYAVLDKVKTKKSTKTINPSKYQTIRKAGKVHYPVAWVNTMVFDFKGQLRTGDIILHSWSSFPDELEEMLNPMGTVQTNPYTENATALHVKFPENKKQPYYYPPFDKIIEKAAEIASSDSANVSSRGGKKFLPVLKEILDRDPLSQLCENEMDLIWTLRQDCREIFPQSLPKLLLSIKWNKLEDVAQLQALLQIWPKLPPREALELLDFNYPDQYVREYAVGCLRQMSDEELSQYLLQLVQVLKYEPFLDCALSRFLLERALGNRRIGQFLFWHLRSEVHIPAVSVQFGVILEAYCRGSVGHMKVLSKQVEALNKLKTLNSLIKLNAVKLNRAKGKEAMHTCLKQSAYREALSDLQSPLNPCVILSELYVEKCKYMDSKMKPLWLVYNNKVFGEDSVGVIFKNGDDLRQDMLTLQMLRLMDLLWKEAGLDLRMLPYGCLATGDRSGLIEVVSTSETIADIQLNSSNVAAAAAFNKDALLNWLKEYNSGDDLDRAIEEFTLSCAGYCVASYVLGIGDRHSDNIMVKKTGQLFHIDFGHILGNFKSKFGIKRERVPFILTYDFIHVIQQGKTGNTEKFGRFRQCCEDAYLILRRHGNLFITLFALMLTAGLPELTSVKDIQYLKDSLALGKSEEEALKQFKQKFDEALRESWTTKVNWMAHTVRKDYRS
Sequence (P27986 whole entry partner, species assumed): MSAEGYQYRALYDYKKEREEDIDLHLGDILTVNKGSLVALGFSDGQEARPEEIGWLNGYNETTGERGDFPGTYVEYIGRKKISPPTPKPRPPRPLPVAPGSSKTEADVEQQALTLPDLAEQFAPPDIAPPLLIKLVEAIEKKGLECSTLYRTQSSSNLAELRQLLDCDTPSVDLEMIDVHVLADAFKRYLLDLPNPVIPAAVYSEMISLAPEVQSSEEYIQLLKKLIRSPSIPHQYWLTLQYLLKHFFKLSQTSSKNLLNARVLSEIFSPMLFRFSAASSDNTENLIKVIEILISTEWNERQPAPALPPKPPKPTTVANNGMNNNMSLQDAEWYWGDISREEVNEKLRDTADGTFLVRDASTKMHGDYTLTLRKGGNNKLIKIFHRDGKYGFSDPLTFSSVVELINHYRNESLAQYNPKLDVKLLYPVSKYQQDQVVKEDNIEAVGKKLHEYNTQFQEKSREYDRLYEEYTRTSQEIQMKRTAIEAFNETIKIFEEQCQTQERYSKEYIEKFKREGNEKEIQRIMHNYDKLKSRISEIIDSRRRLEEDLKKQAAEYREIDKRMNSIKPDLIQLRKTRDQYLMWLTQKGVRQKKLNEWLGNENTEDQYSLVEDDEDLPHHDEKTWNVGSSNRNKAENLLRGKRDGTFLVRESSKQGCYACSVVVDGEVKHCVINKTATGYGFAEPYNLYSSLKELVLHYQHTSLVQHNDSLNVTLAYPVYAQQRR
Assay: PI3Kβ inhibitory activity (Ki value)
Format: biochemical
Conditions: class symbols; read-out: PI3K β Ki
pKi: −log10 of the molar value.
Field: pKi. Provide a value for each of the compounds that follow.

Items follow; give pKi for each.
1. COc1cc(-c2ccc3nc(NC(=O)Nc4ccccc4OCCC(C)C)sc3c2)nc(OC)n1
2. COc1nc(Cl)cc(N2CCc3nc(NC(=O)Nc4ccccc4C(=O)NC4CCCOC4)sc3C2)n1 (centres unmarked)
3. C[C@@H](CO)NC(=O)c1ccccc1NC(=O)Nc1nc2c(s1)CN(c1cc[nH]c(=O)c1)CC2

Response:
["< 5.52", "< 5.52", "< 5.52"]

Items follow; give pKi for each.
1. COc1cncc(-c2cc(NC(=O)Nc3ccccc3C(=O)NC(C)C)nn2C)c1
2. COc1cc(N2CCc3nc(NC(=O)Nc4cn(C)nc4C(=O)NCC(F)(F)F)sc3C2)nc(OC)n1
3. Cc1cc(N2Cc3sc(NC(=O)Nc4ccccc4C(=O)NC(C)C)nc3C(C)C2)nc(Cl)n1 (centres unmarked)
4. CC(C)NC(=O)c1ccccc1NC(=O)Nc1nc2c(s1)CN(c1cncc(C(F)(F)F)c1)CC2
5. COc1nc(Cl)cc(N2CCc3nc(NC(=O)Nc4cnccc4C(=O)NC(C)C)sc3C2)n1
6. COc1cncc(-c2ccc3nc(NC(=O)Nc4ccccc4OCCC(C)C)nn3c2)c1

Response:
["< 5.52", "≥ 6.52", "< 5.52", "< 5.52", "≥ 5.52", "≥ 5.52"]

Items follow; give pKi for each.
1. CC(C)CCOc1ccccc1NC(=O)Nc1cc2n(n1)CCN2c1ccc2c(c1)CCN(C)C2=O
2. COc1cccc(-c2ccc3nc(NC(=O)Nc4ccccc4C(=O)NC(C)C)cn3n2)c1

Response:
["< 5.52", "≥ 5.52"]

----------
Assay: Solubility test (artificial intestinal juice pH 6.8, 1% DMSO)
Format: physicochemical
Details: artificial intestinal juice pH 6.8 with 1% DMSO, fassgf or other biorelevant, kinetic from dmso stock, 25° C.
Field: solubility at 16 h. Provide a value for each of the compounds that follow.
One number for each entry, in µM.

Reference set (2 entries):
>>> readout_number("C[C@@H](CO)NC(=O)c1ccccc1NC(=O)Nc1nc2c(s1)CN(c1cncc(C#N)c1)CC2")
10.3
>>> readout_number("CC(=O)c1cccc(-c2cc(NC(=O)Nc3ccccc3C(=O)NC(C)C)nn2C)c1")
36.8

Items follow; give solubility at 16 h for each.
1. COc1cc(N2CCc3nc(NC(=O)Nc4ccccc4C(=O)NCC(C)(C)O)sc3C2)nc(OC)n1
2. COc1cc(N2CCc3nc(NC(=O)Nc4ccccc4OCCN(C)C)sc3C2)nc(OC)n1
3. COc1cc(N2CCc3nc(NC(=O)NC4CCCCC4C(=O)NC(C)C)sc3C2)nc(OC)n1 (centres unmarked)
4. CC(C)NC(=O)c1ccccc1NC(=O)Nc1nc2c(s1)CN(c1cc[nH]c(=O)c1)CC2
5. CC(C)NC(=O)c1ccccc1NC(=O)Nc1nc2c(s1)CN(c1cnc(N)c(C(F)(F)F)c1)CC2
6. COc1cc(N2CCc3nc(NC(=O)Nc4ccccc4C(=O)NN(C)C)sc3C2)nc(OC)n1
7. COc1ccc(N2CCc3nc(NC(=O)Nc4ccccc4C(=O)NC(C)CO)sc3C2)cc1OC (centres unmarked)

Response:
1: 24.9; 2: 26.3; 3: 32.3; 4: 10; 5: 14; 6: 19.6; 7: 42.6
